# tested.on: human orexin-1 receptor (Homo sapiens)
# Construct: expressed in transfected cells; host or cells: CHO cells (G418 selection)
# Sequence (O43613 whole entry): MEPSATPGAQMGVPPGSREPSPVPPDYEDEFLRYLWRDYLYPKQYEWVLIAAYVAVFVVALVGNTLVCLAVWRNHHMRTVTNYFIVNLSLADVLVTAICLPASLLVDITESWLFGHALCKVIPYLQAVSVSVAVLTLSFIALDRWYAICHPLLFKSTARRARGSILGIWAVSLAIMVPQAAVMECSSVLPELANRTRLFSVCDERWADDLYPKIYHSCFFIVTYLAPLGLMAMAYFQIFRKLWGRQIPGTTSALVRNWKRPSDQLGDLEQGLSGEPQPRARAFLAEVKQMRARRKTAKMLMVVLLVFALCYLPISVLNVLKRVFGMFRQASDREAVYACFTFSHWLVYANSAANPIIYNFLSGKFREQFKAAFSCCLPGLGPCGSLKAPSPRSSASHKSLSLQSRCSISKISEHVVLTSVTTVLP
# assay.protocol: Intracellular calcium measurement (FLIPR), OX1 receptor antagonistic activity
# Type: cell-based
# test.settings: CHO cells expressing human orexin-1 receptor, agonist 10 nM human orexin-A, fluo-3 calcium
Consider the reported IC50 of an entry and match it to a band in LOW = under 40 nM, MEDIUM = from 40 nM up to 100 nM, HIGH = 100 nM and over

- molecule: "CCOc1ccccc1NC(=O)N(C(C)c1ccccc1)C1CCn2c1nc1ccccc1c2=O (centres unmarked) [Example 3]"
  tested.on: "human orexin-1 receptor (Homo sapiens)"
  label: "HIGH"
- molecule: "C[C@@H](c1ccccc1)N(C(=O)Nc1ccccc1OC(F)(F)F)C1CCn2c1nc1cccc(C(F)(F)F)c1c2=O (some centres unmarked) [Example 49]"
  tested.on: "human orexin-1 receptor (Homo sapiens)"
  label: "LOW"
- molecule: "CCCc1ccccc1NC(=O)N(C(C)c1ccccc1)C1CCCn2c1nc1cc(F)ccc1c2=O (centres unmarked) [Example 33]"
  tested.on: "human orexin-1 receptor (Homo sapiens)"
  label: "HIGH"

Hey, which category is CCCc1ccccc1NC(=O)N(C1CCn2c1nc1cccc(C(F)(F)F)c1c2=O)[C@@H](C)c1ccccc1 (some centres unmarked) [Example 50] in, do you know? LOW

Lab note: sort CC(c1ccccc1)N(C(=O)Nc1ccccc1-c1ccccc1)C1CCn2c1nc1cccc(Cl)c1c2=O (centres unmarked) [Example 41] into the matching IC50 band. MEDIUM
